Values from the supplement of paper PMC7877785

- test summary: self-splicing fitness, log relative to wild type (ln ratio); higher = more splicing; Tetrahymena group I intron in knt gene, E. coli kanamycin selection, DiMSum; sequences stand for … in CUCUCU…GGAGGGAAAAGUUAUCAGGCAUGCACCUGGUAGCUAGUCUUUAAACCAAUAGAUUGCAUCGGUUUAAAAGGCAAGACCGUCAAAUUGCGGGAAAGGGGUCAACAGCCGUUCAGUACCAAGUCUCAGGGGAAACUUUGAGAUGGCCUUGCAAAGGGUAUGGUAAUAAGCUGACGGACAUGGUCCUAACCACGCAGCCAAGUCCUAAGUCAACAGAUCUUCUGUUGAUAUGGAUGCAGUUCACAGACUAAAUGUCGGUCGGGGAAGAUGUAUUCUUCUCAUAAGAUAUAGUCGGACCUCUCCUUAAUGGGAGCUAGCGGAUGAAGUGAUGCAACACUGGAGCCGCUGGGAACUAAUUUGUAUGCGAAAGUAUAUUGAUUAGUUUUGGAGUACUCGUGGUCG;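 also: selection with 25 µg/mL kanamycin versus none on LB agar overnight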
- study conditions: 37 °C
# self-splicing fitness (ln) per entry
quantity kind: self-splicing fitness (ln)

1. AGUAAGCAAUAUUACGGUUC	-1.55
2. AUUUAGCAAUAUUACGGCAA	-0.726
3. ACAUAGCAAUAUUACGUUUU	-2.59
4. AUUAAGCAAUAUUACGGCUG	-0.233
5. GAUUAGCAAUAUUACGGGGC	-2.97
6. CCGGAGCAAUAUUACGAGGA	-1.96
7. UCGGAGCAAUAUUACGGAGC	-1.64
8. CUACAGCAAUAUUACGACAG	0.096
9. UUCGAGCAAUAUUACGUAUC	-0.649
10. CAGUAGCAAUAUUACGACGC	-0.25
11. GGAGAGCAAUAUUACGGUUU	-1.15
12. UACGAGCAAUAUUACGCGUC	-2.3
13. UAUAAGCAAUAUUACGUGUU	-2.22
14. UUGGAGCAAUAUUACGAUUU	-2.86
15. GGCAAGCAAUAUUACGUCUC	0.539
16. GAUCAGCAAUAUUACGCAAC	-0.455
17. GUAUAGCAAUAUUACGAUUU	0.247
18. CAUCAGCAAUAUUACGGAUU	-0.143
19. UUAAAGCAAUAUUACGCAUG	0.368
20. CACAAGCAAUAUUACGGACU	-2.11

---

- test summary: self-splicing fitness, log relative to wild type (ln ratio); higher = more splicing; Tetrahymena group I intron in knt gene, E. coli kanamycin selection, DiMSum; sequences stand for … in CUCUCU…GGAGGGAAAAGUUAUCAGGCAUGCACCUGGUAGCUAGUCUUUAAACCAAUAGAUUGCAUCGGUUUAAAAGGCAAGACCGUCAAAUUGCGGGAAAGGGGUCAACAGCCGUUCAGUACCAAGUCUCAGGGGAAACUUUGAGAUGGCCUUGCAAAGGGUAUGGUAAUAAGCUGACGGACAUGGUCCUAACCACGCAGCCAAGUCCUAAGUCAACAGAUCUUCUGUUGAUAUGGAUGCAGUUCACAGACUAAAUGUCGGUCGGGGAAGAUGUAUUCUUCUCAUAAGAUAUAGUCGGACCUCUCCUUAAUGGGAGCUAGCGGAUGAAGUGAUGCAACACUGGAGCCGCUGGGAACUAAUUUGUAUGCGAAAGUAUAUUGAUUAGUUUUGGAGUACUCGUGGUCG
- study conditions: 37 °C
quantity kind: self-splicing fitness (ln)

1. CUAGAGCAAUAUUACGCGGG	0.316
2. UAUCAGCAAUAUUACGACGG	0.242
3. CAUGAGCAAUAUUACGCCAG	-1.84
4. AUCAAGCAAUAUUACGGCCU	0.15
5. GCUUAGCAAUAUUACGACGU	0.408
6. AUCUAGCAAUAUUACGUAUU	-2.08
7. UGCCAGCAAUAUUACGCUAC	-2.78
8. AAAGAGCAAUAUUACGAUAA	-2.2
9. GGAUAGCAAUAUUACGUUGG	-2.17
10. AUAUAGCAAUAUUACGGGUA	-0.788
11. CGGUAGCAAUAUUACGGCUC	-0.532
12. CACAAGCAAUAUUACGAAUA	-2.71
13. GGUCAGCAAUAUUACGAGAG	-1.16
14. GCCAAGCAAUAUUACGUGAG	-0.535
15. AUUUAGCAAUAUUACGGCGU	0.269
16. CAAUAGCAAUAUUACGGGCG	0.28
17. UUUCAGCAAUAUUACGCCCA	-0.699
18. AGAAAGCAAUAUUACGUGAA	-1.96
19. UUGAAGCAAUAUUACGUUUU	-2.52
20. CUAGAGCAAUAUUACGUUCU	-2.21
21. ACGCAGCAAUAUUACGCUGG	-1.48
22. AGCCAGCAAUAUUACGGCCC	-0.0646
23. UCACAGCAAUAUUACGGGCG	-1.07
24. CGUAAGCAAUAUUACGUACA	-0.137
25. GACCAGCAAUAUUACGUCUG	-1.74
26. UCUGAGCAAUAUUACGAUCA	-2.38

---

- test summary: self-splicing fitness, log relative to wild type (ln ratio); higher = more splicing; Tetrahymena group I intron in knt gene, E. coli kanamycin selection, DiMSum; sequences stand for … in CUCUCU…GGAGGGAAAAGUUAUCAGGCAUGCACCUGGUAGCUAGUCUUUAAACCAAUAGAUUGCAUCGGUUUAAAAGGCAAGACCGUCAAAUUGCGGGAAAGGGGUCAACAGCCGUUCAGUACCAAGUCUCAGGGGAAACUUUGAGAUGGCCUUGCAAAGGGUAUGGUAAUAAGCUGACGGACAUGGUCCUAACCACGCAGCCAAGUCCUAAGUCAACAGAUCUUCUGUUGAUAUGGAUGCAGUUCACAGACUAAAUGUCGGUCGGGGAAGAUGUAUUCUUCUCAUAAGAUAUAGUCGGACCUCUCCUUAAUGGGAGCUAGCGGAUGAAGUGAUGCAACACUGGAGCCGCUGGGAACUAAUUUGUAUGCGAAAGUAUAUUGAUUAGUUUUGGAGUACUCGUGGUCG
- study conditions: 37 °C
quantity kind: self-splicing fitness (ln)

1. AAGCAGCAAUAUUACGACCC	-0.112
2. GCAGAGCAAUAUUACGGACU	-1.9
3. GAGAAGCAAUAUUACGUCGA	-1.09
4. AGGUAGCAAUAUUACGGAUU	-0.618
5. GUCAAGCAAUAUUACGGCAC	0.15
6. GGCGAGCAAUAUUACGUUGA	-2.18
7. AUCAAGCAAUAUUACGAUUU	-0.186
8. UCAUAGCAAUAUUACGGCGA	-0.102
9. GCUGAGCAAUAUUACGUGAU	-1.13
10. CGUAAGCAAUAUUACGGCCU	-1.54
11. CAGUAGCAAUAUUACGUUUA	-3.02
12. GAUAAGCAAUAUUACGCGUU	-2.95
13. UUACAGCAAUAUUACGAUUG	-0.796
14. UUGAAGCAAUAUUACGUCAU	-0.306
15. UACAAGCAAUAUUACGUUUU	-2.32
16. AUAGAGCAAUAUUACGUCUU	0.419
17. CCUUAGCAAUAUUACGCAAU	-1.47
18. ACCAAGCAAUAUUACGCAAC	-1.01
19. GAUUAGCAAUAUUACGUUGA	-2.25
20. UUUAAGCAAUAUUACGGGGU	-1.7
21. CGUAAGCAAUAUUACGGUGU	-3.24
22. AUUCAGCAAUAUUACGUCUG	-1.33
23. UGCAAGCAAUAUUACGCUAG	-2.42
24. CAAUAGCAAUAUUACGCACG	-1.12
25. AGUCAGCAAUAUUACGAUAU	0.475

---

- test summary: self-splicing fitness, log relative to wild type (ln ratio); higher = more splicing; Tetrahymena group I intron in knt gene, E. coli kanamycin selection, DiMSum; sequences stand for … in CUCUCU…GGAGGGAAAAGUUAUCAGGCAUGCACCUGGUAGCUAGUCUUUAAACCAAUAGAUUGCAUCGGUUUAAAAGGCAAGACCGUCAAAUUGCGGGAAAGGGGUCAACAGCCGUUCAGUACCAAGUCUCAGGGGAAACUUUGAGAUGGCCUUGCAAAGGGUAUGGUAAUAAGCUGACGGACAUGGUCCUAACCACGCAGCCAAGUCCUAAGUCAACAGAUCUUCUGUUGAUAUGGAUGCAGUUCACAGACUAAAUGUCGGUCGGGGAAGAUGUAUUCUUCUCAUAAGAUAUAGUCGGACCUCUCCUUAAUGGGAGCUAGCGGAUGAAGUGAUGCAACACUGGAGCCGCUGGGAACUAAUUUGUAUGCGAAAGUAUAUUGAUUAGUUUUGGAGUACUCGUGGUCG
- study conditions: 37 °C
quantity kind: self-splicing fitness (ln)

1) GCUAAGCAAUAUUACGACCG	0.0102
2) GCCAAGCAAUAUUACGAGGC	-1.93
3) GUUAAGCAAUAUUACGCACU	-1.17
4) GAUUAGCAAUAUUACGGCCG	-1.01
5) AAAGAGCAAUAUUACGUUUA	-1.12
6) CGUCAGCAAUAUUACGGAUU	-0.245
7) GAGCAGCAAUAUUACGCUCG	-0.285
8) GUCCAGCAAUAUUACGAGUA	-0.787
9) CCGCAGCAAUAUUACGCAGU	-1.48
10) AGCAAGCAAUAUUACGGACG	-0.244
11) GACUAGCAAUAUUACGCAUG	-0.455
12) UAAUAGCAAUAUUACGACAG	-0.262
13) CUCAAGCAAUAUUACGUUCA	-1.46
14) AUUCAGCAAUAUUACGAAUG	-0.673
15) UAGCAGCAAUAUUACGGCCA	0.33
16) AAACAGCAAUAUUACGUCAA	-1.44
17) ACUGAGCAAUAUUACGAUAA	-2.75
18) GCAAAGCAAUAUUACGUUUG	-3.24
